# Test system: Phytophthora infestans
# test-method-notes: whole plant or invertebrate
# Type: in vivo
# conditions: tomato late blight; spray 17 h after inoculation; tested at 40 ppm
Kindly supply the reported Test D disease rating (100 = 100% disease control, 0 = no disease control) values for the records listed here.
Give bare numbers, in %.

compound	readout-units	value-observed
Cc1cc(C(F)(F)F)nn1CC(=O)N1CCC(c2csc(C(=O)N(C)[C@@H]3CCCc4ccccc43)n2)CC1	%	99
Cc1cc(C(F)(F)F)nn1CC(=O)N1CCC(c2nc(C(=O)N(C)C3c4ccccc4CCC3(C)C)cs2)CC1 (stereo not shown)	%	99
Cc1ccccc1C(C)N(C)C(=O)c1csc(C2CCN(C(=O)Cn3nc(C(F)(F)F)cc3C)CC2)n1 (stereo not shown)	%	82
COc1ccc2c(c1)C(N(C)C(=O)c1csc(C3CCN(C(=O)Cn4nc(C(F)(F)F)cc4C)CC3)n1)CCC2 (stereo not shown)	%	99
COc1cccc2c1CCCC2N(C)C(=O)c1csc(C2CCN(C(=O)Cn3nc(C(F)(F)F)cc3C)CC2)n1 (stereo not shown)	%	99

Report Test D disease rating (100 = 100% disease control, 0 = no disease control) for each item below.
1. Cc1cc(C(F)(F)F)nn1CC(=O)N1CCN(c2nc(C(=O)N(C)[C@@H]3CCCc4ccccc43)ns2)CC1
2. C[C@H](c1ccccc1)N(C)C(=O)c1csc(C2CCN(C(=O)Cc3cccc(F)c3F)CC2)n1

1. 99
2. 0
